# target.desc: SARM1-TIR (Homo sapiens, UniProt Q6SZW1, DEL570-570/DEL657-657)
# Construct: made in house
# Sequence (Q6SZW1 with tags, fused parts or gaps DEL570-570/DEL657-657): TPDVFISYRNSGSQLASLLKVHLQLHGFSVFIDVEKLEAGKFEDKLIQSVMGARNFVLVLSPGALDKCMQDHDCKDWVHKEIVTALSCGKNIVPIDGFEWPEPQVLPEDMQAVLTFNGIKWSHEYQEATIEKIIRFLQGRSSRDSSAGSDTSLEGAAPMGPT
# method: Substrate specificity in NADase assay, purified SARM1-TIR
# Type: biochemical
# study.conditions: purified TIR protein, HPLC and LC-MS, 30 minutes
parameter.measured: cleavage of substrate by SARM1-TIR

Documented cleavage of substrate by SARM1-TIR of NC(=O)c1ccc[n+]([C@@H]2O[C@H](COP(=O)([O-])OP(=O)(O)OC[C@H]3O[C@@H](n4cnc5c(=O)[nH]c(N)nc54)[C@H](O)[C@@H]3O)[C@@H](O)[C@H]2O)c1 [NGD, Nicotinamide Guanine Dinucleotide] : cleaved

Documented cleavage of substrate by SARM1-TIR of NC(=S)c1ccc[n+]([C@@H]2O[C@H](COP(=O)([O-])OP(=O)(O)OC[C@H]3O[C@@H](n4cnc5c(N)ncnc54)[C@H](O)[C@@H]3O)[C@@H](O)[C@H]2O)c1 [sNAD, thionicotinamide adenine dinucleotide] : substantially cleaved

Documented cleavage of substrate by SARM1-TIR of NC(=O)c1ccc[n+](C2OC(COP(=O)(O)OP(=O)(O)OCC3OC(n4cnc5c(=O)[nH]cnc54)C(O)C3O)C(O)C2O)c1 (stereo not drawn) [NHD, Nicotinamide Hypoxanthine Dinucleotide] : cleaved

Documented cleavage of substrate by SARM1-TIR of CC(=O)c1ccc[n+]([C@@H]2O[C@H](COP(=O)([O-])OP(=O)(O)OC[C@H]3O[C@@H](n4cnc5c(N)ncnc54)[C@H](O)[C@@H]3O)[C@@H](O)[C@H]2O)c1 [3-apAD, 3-acetylpyridine adenine dinucleotide] : substantially cleaved

----------
# Tested on: prokaryotic TIR domains (TirS-TIR, TcpC-TIR, TcpA-TIR)
# method: Substrate specificity in NADase assay, purified prokaryotic TIR domains
# Assay type: biochemical
# study.conditions: purified TIR proteins, HPLC and LC-MS, 30 minutes
parameter.measured: cleavage of substrate by prokaryotic TIR domains

Summary line: NC(=S)c1ccc[n+]([C@@H]2O[C@H](COP(=O)([O-])OP(=O)(O)OC[C@H]3O[C@@H](n4cnc5c(N)ncnc54)[C@H](O)[C@@H]3O)[C@@H](O)[C@H]2O)c1 [sNAD, thionicotinamide adenine dinucleotide] , prokaryotic TIR domains (TirS-TIR, TcpC-TIR, TcpA-TIR), reported cleavage of substrate by prokaryotic TIR domains = substantially cleaved

Summary line: NC(=O)c1ccc[n+](C2OC(COP(=O)(O)OP(=O)(O)OCC3OC(n4cnc5c(=O)[nH]cnc54)C(O)C3O)C(O)C2O)c1 (stereo not shown) [NHD, Nicotinamide Hypoxanthine Dinucleotide] , prokaryotic TIR domains (TirS-TIR, TcpC-TIR, TcpA-TIR), reported cleavage of substrate by prokaryotic TIR domains = did not cleave

Summary line: CC(=O)c1ccc[n+]([C@@H]2O[C@H](COP(=O)([O-])OP(=O)(O)OC[C@H]3O[C@@H](n4cnc5c(N)ncnc54)[C@H](O)[C@@H]3O)[C@@H](O)[C@H]2O)c1 [3-apAD, 3-acetylpyridine adenine dinucleotide] , prokaryotic TIR domains (TirS-TIR, TcpC-TIR, TcpA-TIR), reported cleavage of substrate by prokaryotic TIR domains = substantially cleaved

Summary line: NC(=O)c1ccc[n+]([C@@H]2O[C@H](COP(=O)([O-])OP(=O)(O)OC[C@H]3O[C@@H](n4cnc5c(=O)[nH]c(N)nc54)[C@H](O)[C@@H]3O)[C@@H](O)[C@H]2O)c1 [NGD, Nicotinamide Guanine Dinucleotide] , prokaryotic TIR domains (TirS-TIR, TcpC-TIR, TcpA-TIR), reported cleavage of substrate by prokaryotic TIR domains = did not cleave

Data origin, for the record: patent US12247246B2
